B1: Hairpin Ribozyme (parent)
chain: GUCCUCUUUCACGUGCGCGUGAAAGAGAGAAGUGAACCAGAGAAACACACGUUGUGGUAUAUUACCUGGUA

variants of: B1; test: self-cleavage, relative activity (ratio to wild type); higher = more cleavage; co-transcriptional
METRIC NAME: self-cleavage

MUTANT ID	ASSAY VALUE
A31C C38A	0.141
A28G G56U	0.165
A47G C66A	0.138
U2C G54A	0.134
A44U G69A	0.15
A31U U52C	0.116
G13U A64G	0.533
G29A A41G	0.106
A22U U33A	0.172
G19C U55C	0.271
C48G U62C	0.139
G34A G56C	0.13
C3U U62G	0.259
A39U A45G	0.252
G17A A64U	0.151
G25C A71G	0.687
U33C G54U	0.141
C6G U8C	0.228
C3G U9A	0.112
A22C A36U	0.581
G51U U52G	0.648
A45C C48U	0.145
